These data points were gathered from patent US20070167631A1.

- Tested on: Echinochloa
- Assay Procedure: Pre-emergence herbicidal action (Example B1)
- Type: in vivo
- Study Conditions: 250 g/ha, after 4 weeks, rating scale 10=total damage, 0=no action
Kindly supply the reported Pre-emergence action: Echinochloa values for the records listed here.

Example compounds with recorded Pre-emergence action: Echinochloa:
Compound: O=C1CCCC(O)=C1C(=O)c1ccc(C(F)(F)F)c(N2CCOCC2)n1
Reported Value: 10

Compound: CN(C)c1nc(C(=O)C2=C(O)C(C)(C)C(=O)C(C)(C)C2=O)ccc1C(F)(F)F
Reported Value: 8

Value sought for every listed compound: Pre-emergence action: Echinochloa.
1. COC(COc1nc(C(=O)C2=C(O)CCCC2=O)ccc1C(F)(F)F)OC
2. CC1(C)C(=O)C(C(=O)c2ccc(C(F)(F)F)c(N3CCOCC3)n2)=C(O)C(C)(C)C1=O
3. Cc1nc(C(=O)C2=C(O)C(C)(C)C(=O)C(C)(C)C2=O)ccc1C#N

1. 5
2. 9
3. 10

Hi team, please reply with Pre-emergence action: Echinochloa for each item in this list.
1. Cc1nc(C(=O)C2=C(O)C(C)(C)C(=O)C(C)(C)C2=O)ccc1C(F)(F)F
2. COCCOCc1nc(C(=O)C2=C(O)CCCC2=O)ccc1C(F)(F)F
3. CC1(C)C(=O)C(C(=O)c2ccc(C(F)(F)F)c(C3(C)OCCO3)n2)=C(O)C(C)(C)C1=O
4. CCC(=O)N(C)c1nc(C(=O)C2=C(O)C(C)(C)C(=O)C(C)(C)C2=O)ccc1C(F)(F)F
5. CC1CC(=O)C(C(=O)c2ccc(C(F)(F)F)c(N3CCOCC3)n2)=C(O)C1 (stereo not drawn)
6. CC1CCC(O)=C(C(=O)c2ccc(C(F)(F)F)c(N3CCOCC3)n2)C1=O (stereo not drawn)
7. CC1(C)C(=O)C(C(=O)c2ccc(C(F)(F)F)c(OC3CCOC3)n2)=C(O)C(C)(C)C1=O (stereo not drawn)
8. O=C1CCCC(O)=C1C(=O)c1ccc(C(F)(F)F)c(N2CCSCC2)n1

9
2
10
8
10
10
0
10

List reported Pre-emergence action: Echinochloa for each of these compounds:
1. CC1CC(O)=C(C(=O)c2ccc(C(F)(F)F)c(N3CCOCC3)n2)C(=O)C1(C)C (stereo not drawn)
2. CC(=O)N(C)c1nc(C(=O)C2=C(O)C(C)(C)C(=O)C(C)(C)C2=O)ccc1C(F)(F)F
3. CC1CN(c2nc(C(=O)C3=C(O)CCCC3=O)ccc2C(F)(F)F)CC(C)O1 (stereo not drawn)
4. CC1(C)C(=O)C(C(=O)c2ccc(C(F)(F)F)c(N3CCSCC3)n2)=C(O)C(C)(C)C1=O
5. CC1(C)CCC(O)=C(C(=O)c2ccc(C(F)(F)F)c(N3CCOCC3)n2)C1=O

7
7
10
10
10
